This collection of values is drawn from ChEMBL document CHEMBL1139015.

Biological target: Sodium/glucose cotransporter 1 (Homo sapiens) (UniProt P13866)
Sequence (whole entry): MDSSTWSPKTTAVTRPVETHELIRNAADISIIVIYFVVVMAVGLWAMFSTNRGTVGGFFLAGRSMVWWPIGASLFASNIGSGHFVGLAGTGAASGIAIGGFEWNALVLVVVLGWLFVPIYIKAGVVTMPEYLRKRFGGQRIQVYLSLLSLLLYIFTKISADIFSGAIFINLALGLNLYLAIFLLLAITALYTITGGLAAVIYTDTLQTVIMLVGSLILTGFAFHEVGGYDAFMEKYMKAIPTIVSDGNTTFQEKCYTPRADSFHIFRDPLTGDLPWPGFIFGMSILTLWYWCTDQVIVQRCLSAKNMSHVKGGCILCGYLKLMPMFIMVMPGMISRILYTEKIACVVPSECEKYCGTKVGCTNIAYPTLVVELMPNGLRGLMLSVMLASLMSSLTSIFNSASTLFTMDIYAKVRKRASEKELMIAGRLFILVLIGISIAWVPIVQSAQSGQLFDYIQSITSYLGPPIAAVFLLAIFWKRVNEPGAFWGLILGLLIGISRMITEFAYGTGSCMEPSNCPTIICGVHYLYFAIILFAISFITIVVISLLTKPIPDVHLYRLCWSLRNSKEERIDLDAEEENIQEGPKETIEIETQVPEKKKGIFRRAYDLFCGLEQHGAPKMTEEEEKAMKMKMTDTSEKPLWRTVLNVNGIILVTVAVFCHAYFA
Experiment: Inhibition of SGLT1 expressed in CHO-K1 cells at 10 uM
Assay type: cell-based
Exercise: state measured inhibition for each of the molecules provided.
Answers are plain numbers, in %.

Please review the following examples before continuing.
{"Compound Structure": "OC[C@H]1O[C@@H](Oc2cccc3[nH]cc(Cc4ccc(Cl)cc4)c23)[C@H](O)[C@@H](O)[C@@H]1O", "Units Text": "%", "Quantitative Result": 58}
{"Compound Structure": "CCOc1ccc(Cc2c[nH]c3cccc(O[C@@H]4O[C@H](CO)[C@@H](O)[C@H](O)[C@H]4O)c23)cc1", "Units Text": "%", "Quantitative Result": 49}
{"Compound Structure": "OC[C@H]1O[C@@H](Oc2cccc3[nH]cc(Cc4ccc(-c5ccccc5)cc4)c23)[C@H](O)[C@@H](O)[C@@H]1O", "Units Text": "%", "Quantitative Result": 63}

I have 6 molecules here; please give me inhibition for each one.
1. OC[C@H]1O[C@@H](Oc2cccc3[nH]cc(Cc4ccc(-c5ccccc5)c(F)c4)c23)[C@H](O)[C@@H](O)[C@@H]1O
2. COc1ccc(Cc2c[nH]c3cccc(O[C@@H]4O[C@H](CO)[C@@H](O)[C@H](O)[C@H]4O)c23)cc1F
3. CCc1ccc(CCc2c[nH]c3cccc(O[C@@H]4O[C@H](CO)[C@@H](O)[C@H](O)[C@H]4O)c23)cc1
4. OC[C@H]1O[C@@H](Oc2cccc3[nH]cc(Cc4ccc5c(c4)OCC5)c23)[C@H](O)[C@@H](O)[C@@H]1O
5. Cc1ccc(Cc2c[nH]c3cccc(O[C@@H]4O[C@H](CO)[C@@H](O)[C@H](O)[C@H]4O)c23)cc1F
6. COc1ccc(-c2c[nH]c3cccc(O[C@@H]4O[C@H](CO)[C@@H](O)[C@H](O)[C@H]4O)c23)cc1

Key:
35
79
46
30
42
0
